Target: HLA-DR DRB3*0101 (DR52) (Homo sapiens, UniProt P01903+P79483)
Test: biochemical
Assay type: binding
pIC50: −log10 of the molar value.

[
  {
    "smiles.data": "CSCC[C@H](NC(=O)[C@H](CC(=O)O)NC(=O)[C@H](Cc1ccc(O)cc1)NC(=O)[C@H](CC(C)C)NC(=O)[C@@H]1CCCN1C(=O)[C@H](Cc1c[nH]cn1)NC(=O)[C@@H]1CCCN1C(=O)[C@H](Cc1ccccc1)NC(=O)[C@H](CO)NC(=O)[C@H](Cc1c[nH]cn1)NC(=O)[C@H](CO)NC(=O)[C@@H](NC(=O)[C@H](CCC(N)=O)NC(=O)[C@H](Cc1ccccc1)NC(=O)[C@@H](N)C(C)C)C(C)C)C(=O)O",
    "system": "HLA-DR DRB3*0101 (DR52) (Homo sapiens, UniProt P01903+P79483)",
    "relation.operator": "=",
    "pIC50": 4.63
  },
  {
    "smiles.data": "CC[C@H](C)[C@H](NC(=O)[C@H](Cc1c[nH]c2ccccc12)NC(=O)[C@@H](NC(=O)[C@@H](NC(=O)[C@H](CO)NC(=O)[C@H](CC(C)C)NC(=O)[C@@H](N)[C@@H](C)O)C(C)C)[C@@H](C)O)C(=O)NCC(=O)N[C@@H](C)C(=O)N[C@@H](C)C(=O)N1CCC[C@H]1C(=O)N[C@@H](CC(C)C)C(=O)N[C@H](C(=O)N[C@@H](CC(C)C)C(=O)N[C@@H](CO)C(=O)O)[C@@H](C)CC",
    "system": "HLA-DR DRB3*0101 (DR52) (Homo sapiens, UniProt P01903+P79483)",
    "relation.operator": "=",
    "pIC50": 5.22
  },
  {
    "smiles.data": "CC[C@H](C)[C@H](NC(=O)[C@@H]1CCCN1)C(=O)N[C@@H](CC(C)C)C(=O)N[C@@H](CC(C)C)C(=O)N[C@@H](Cc1c[nH]c2ccccc12)C(=O)N[C@@H](CCC(N)=O)C(=O)N1CCC[C@H]1C(=O)N[C@H](C(=O)N1CCC[C@H]1C(=O)N[C@H](C(=O)N[C@@H](Cc1c[nH]cn1)C(=O)N[C@H](C(=O)N[C@H](C(=O)N1CCC[C@H]1C(=O)N[C@@H](CC(C)C)C(=O)O)C(C)C)[C@@H](C)O)C(C)C)[C@@H](C)CC",
    "system": "HLA-DR DRB3*0101 (DR52) (Homo sapiens, UniProt P01903+P79483)",
    "relation.operator": "<",
    "pIC50": 5.05
  },
  {
    "smiles.data": "CC[C@H](C)[C@H](NC(=O)[C@H](CS)NC(=O)[C@H](Cc1c[nH]cn1)NC(=O)[C@H](C)NC(=O)[C@H](C)NC(=O)[C@@H](NC(=O)[C@H](CC(C)C)NC(=O)[C@@H](NC(=O)[C@H](Cc1c[nH]c2ccccc12)NC(=O)[C@@H](N)CCC(N)=O)C(C)C)[C@@H](C)O)C(=O)N[C@@H](CCCNC(=N)N)C(=O)N[C@@H](CC(N)=O)C(=O)N[C@@H](CCCCN)C(=O)N[C@@H](CO)C(=O)N[C@H](C(=O)O)C(C)C",
    "system": "HLA-DR DRB3*0101 (DR52) (Homo sapiens, UniProt P01903+P79483)",
    "relation.operator": "=",
    "pIC50": 5.13
  },
  {
    "smiles.data": "CC[C@H](C)[C@H](N)C(=O)N[C@@H](CCCCN)C(=O)N[C@@H](CCCCN)C(=O)N[C@@H](Cc1ccccc1)C(=O)N[C@@H](CC(C)C)C(=O)N[C@@H](Cc1ccc(O)cc1)C(=O)N[C@@H](CC(N)=O)C(=O)N[C@@H](Cc1ccccc1)C(=O)N[C@H](C(=O)N[C@@H](CCC(N)=O)C(=O)N[C@H](C(=O)N1CCC[C@H]1C(=O)N[C@@H](Cc1c[nH]cn1)C(=O)N[C@@H](CC(C)C)C(=O)N[C@@H](C)C(=O)O)[C@@H](C)CC)[C@@H](C)O",
    "system": "HLA-DR DRB3*0101 (DR52) (Homo sapiens, UniProt P01903+P79483)",
    "relation.operator": "=",
    "pIC50": 6.32
  }
]
